// data source = patent US20260232666A1

Tested on: pERK in NCI-H358 cells
Measurement notes: Cell-based pERK HTRF assay (pERK inhibition in H358 cells)
Condition: Homo sapiens, NCI-H358, 0.5 h, 30 min incubation
Readout kind: IC50

Some entries whose results are on file:
Molecule	IC50
C=CC(=O)N1CC[C@@H](N(CC)c2nc(OC[C@@H]3CC4(CC4)CN3C)nc3c(F)c(-c4ccc(F)c5sc(N)c(C#N)c45)c(C(F)(F)F)cc23)[C@H]1C [Compound 65]	< 100 nM
C[C@@H]1[C@H](N(C)c2nc(OC[C@@]34CCCN3C[C@H](F)C4)nc3c(F)c(-c4ccc(F)c5sc(N)c(C#N)c45)c(C(F)(F)F)cc23)CCN1C(=O)/C=C/c1nc(C(C)(F)F)no1 [Compound 188]	< 100 nM
C=CC(=O)N1CC[C@@H](N(C)c2nc(OC[C@@H]3C[C@@H](F)CN3C)nc3c(F)c(-c4ccc(F)c5sc(N)c(C#N)c45)c(Cl)cc23)[C@@H]1C [Compound 82]	< 100 nM
C=CC(=O)N1CC[C@@H](N(CC)c2nc(OC[C@@]34CCCN3C[C@H](F)C4)nc3c(F)c(-c4ccc(F)c5sc(N)c(C#N)c45)ccc23)[C@H]1C [Compound 17]	< 100 nM
C=CC(=O)N1CC[C@@H](N(C)c2nc(OC[C@@]34CCCN3C[C@H](F)C4)nc3c(F)c(-c4ccc(F)c5sc(N)c(C#N)c45)c(Cl)cc23)[C@H]1CC [Compound 19]	< 100 nM

Just so you know, measured IC50 for C=CC(=O)N1CC[C@@H](N(C)c2nc(OC[C@@H]3CCCN3C)nc3c(F)c(-c4ccc(F)c5sc(N)c(C#N)c45)c(C(F)(F)F)cc23)[C@@H]1C [Compound 38] came out at < 100 nM

Just so you know, measured IC50 for C=CC(=O)N1CC[C@@H](N(C)c2nc(OC[C@@H]3CC4(CC4)CN3CC)nc3c(F)c(-c4ccc(F)c5sc(N)c(C#N)c45)c(C(F)(F)F)cc23)[C@@H]1C [Compound 95] came out at < 100 nM

Just so you know, measured IC50 for C=CC(=O)N1CCC(N(C)c2nc(OC[C@@]34CCCN3C[C@H](F)C4)nc3c(F)c(-c4ccc(F)c5sc(N)c(C#N)c45)c(Cl)cc23)[C@H]1CC (some centres unmarked) [Compound 2] came out at < 100 nM

Just so you know, measured IC50 for COC1CC(COc2nc(N(C)C3CCN(C(=O)/C=C/c4nc(C(C)(F)F)no4)C3C)c3cc(Cl)c(-c4ccc(F)c5sc(N)c(C#N)c45)c(F)c3n2)N(C)C1 (centres unmarked) [Compound 190] came out at < 100 nM

Just so you know, measured IC50 for C=CC(=O)N1CC[C@@H](N(CC)c2nc(OC[C@@]34CCCN3C[C@H](F)C4)nc3cc(-c4ccc(F)c5sc(N)c(C#N)c45)c(C#N)cc23)[C@@H]1C [Compound 56] came out at < 100 nM

Just so you know, measured IC50 for C=CC(=O)N1C[C@H](N(C)c2nc(OC[C@@]34CCCN3C[C@H](F)C4)nc3c(F)c(-c4ccc(F)c5sc(N)c(C#N)c45)c(C(F)(F)F)cc23)C[C@H]1C (atropisomer, axis not shown) [Compound 176] came out at < 100 nM
